- measured_on: RAC-alpha serine/threonine-protein kinase (Homo sapiens) (UniProt P31749)
- Sequence (P31749 whole entry): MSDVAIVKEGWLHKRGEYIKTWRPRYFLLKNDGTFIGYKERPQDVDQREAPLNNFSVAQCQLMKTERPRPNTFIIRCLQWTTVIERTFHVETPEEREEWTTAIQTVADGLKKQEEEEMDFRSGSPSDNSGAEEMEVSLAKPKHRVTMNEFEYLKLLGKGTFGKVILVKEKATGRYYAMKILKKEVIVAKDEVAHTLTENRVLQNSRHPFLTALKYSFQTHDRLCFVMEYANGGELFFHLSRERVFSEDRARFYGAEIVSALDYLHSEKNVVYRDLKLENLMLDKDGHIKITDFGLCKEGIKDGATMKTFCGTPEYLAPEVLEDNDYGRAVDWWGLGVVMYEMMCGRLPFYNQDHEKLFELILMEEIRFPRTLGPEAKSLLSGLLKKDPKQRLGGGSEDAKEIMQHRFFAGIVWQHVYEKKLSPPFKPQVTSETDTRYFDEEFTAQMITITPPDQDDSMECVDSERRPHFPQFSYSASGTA
- method: Inhibition of human Protein kinase B alpha at 30 uM
Measured inhibition accompanies every entry in the list below.
Give just the numeric value; % need not be written.

Fc1ccc(Cc2[nH]cnc3ncnc2-3)cc1	3

Continue with the next molecule.
Record request: inhibition value, item `CSc1ccc(-c2nc3c(Sc4ccc(F)cc4)ncnc3n2C)cc1` 0

====

- measured_on: Glycogen synthase kinase-3 beta (Homo sapiens)
- method: Inhibition of human Glycogen synthase kinase-3 beta at 30 uM
measured_quantity: inhibition (%)
Give just the numeric value; % need not be written.

Fc1ccc(Sc2ncnc3[nH]cnc23)cc1	0
Cn1c(-c2ccc(S(C)(=O)=O)cc2)nc2c(Sc3ccccc3)ncnc21	0
Cn1cnc2c(SCc3ccccc3)ncnc21	10
CSc1ccc(-c2nc3c(Sc4ccccc4)ncnc3n2C)cc1	3
Fc1ccc(CSc2[nH]cnc3ncnc2-3)cc1	0
Fc1ccc(Oc2[nH]cnc3ncnc2-3)cc1	0

Record request: inhibition value, item `Fc1ccc(Cc2[nH]cnc3ncnc2-3)cc1` 2

Record request: inhibition value, item `Cn1cnc2c(/C=C/c3ccccc3)ncnc21` 0

====

Measured inhibition accompanies every entry in the list below.
- measured_on: Mitogen-activated protein kinase 1 (Homo sapiens)
- method: Inhibition of human Mitogen-activated protein kinase 2 at 30 uM
Give just the numeric value; % need not be written.

Cn1cnc2c(Nc3ccccc3)ncnc21	42
Fc1ccc(Cn2cnc3ncnc(Cl)c32)cc1	1

Continue with the next molecule.
Record request: inhibition value, item `Clc1ncnc2ncn(Cc3ccccc3)c12` 1

====

- measured_on: Protein kinase C alpha type (Homo sapiens) (UniProt P17252)
- method: Inhibition of human Protein kinase C alpha
- Parameters: concentration or dose not given beside the values
- experimental_setup: concentration not given here
measured_quantity: inhibition (%)
Give just the numeric value; % need not be written.

Cn1cnc2c(/C=C/c3ccccc3)ncnc21	7
Cn1c(-c2ccc(S(C)(=O)=O)cc2)nc2c(Sc3ccc(F)cc3)ncnc21	7
Fc1ccc(Cn2cnc3ncnc(Cl)c32)cc1	13
Fc1ccc(-[n+]2c[nH]c3ncncc32)cc1	2
c1ccc(-[n+]2c[nH]c3ncncc32)cc1	4
c1ccc(Oc2ncnc3[nH]cnc23)cc1	8

Continue with the next compound.
Record request: inhibition value, item `Fc1ccc(CSc2[nH]cnc3ncnc2-3)cc1` 4

====

- measured_on: Glycogen synthase kinase-3 beta (Homo sapiens) (UniProt P49841)
- Sequence (P49841 whole entry, looked up): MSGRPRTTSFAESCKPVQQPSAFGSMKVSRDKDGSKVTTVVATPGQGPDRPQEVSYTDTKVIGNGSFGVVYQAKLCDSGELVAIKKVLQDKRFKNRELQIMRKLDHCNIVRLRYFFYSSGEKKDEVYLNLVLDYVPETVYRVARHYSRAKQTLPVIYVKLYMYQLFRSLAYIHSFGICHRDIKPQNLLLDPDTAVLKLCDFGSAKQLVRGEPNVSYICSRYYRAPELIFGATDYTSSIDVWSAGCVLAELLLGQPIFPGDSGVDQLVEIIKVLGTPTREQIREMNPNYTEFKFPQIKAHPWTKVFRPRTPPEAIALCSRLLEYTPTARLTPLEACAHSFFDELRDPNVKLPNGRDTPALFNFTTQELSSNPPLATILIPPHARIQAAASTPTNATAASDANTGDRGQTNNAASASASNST
- method: Inhibition of human Glycogen synthase kinase-3 beta at 30 uM
Is inhibition at least 4%? Then TRUE. If not, FALSE.

Study these solved cases before continuing.
Fc1ccc(-[n+]2c[nH]c3ncncc32)cc1	FALSE
c1ccc(Oc2ncnc3[nH]cnc23)cc1	FALSE
Clc1ncnc2c1ncn2Cc1ccccc1	FALSE
Clc1ncnc2ncn(Cc3ccccc3)c12	TRUE
Cn1cnc2c(-c3ccc(F)cc3)ncnc21	FALSE
Cn1c(-c2ccc(S(C)(=O)=O)cc2)nc2c(Sc3ccc(F)cc3)ncnc21	FALSE
c1ccc(CSc2ncnc3[nH]cnc23)cc1	TRUE
Fc1ccc(Cn2cnc3c(Cl)ncnc32)cc1	TRUE
Fc1ccc(C[n+]2c[nH]c3ncncc32)cc1	TRUE
c1ccc(Nc2ncnc3[nH]cnc23)cc1	TRUE

Okay, now this compound:
Could you tell me if the measured inhibition of `Cn1c(C#CCCO)nc2c(Sc3ccccc3)ncnc21` reaches 4% or more? FALSE

====

- measured_on: Ca2+/calmodulin-dependent protein kinase II (CaM kinase II) (Rattus norvegicus) (UniProt P11275+P08413+P15791+P11730)
- method: Inhibition of rat Calcium/calmodulin-dependent protein kinase type II at 30 uM
- Format: protein assay
Is inhibition at least 3%? Then Criterion met. If not, Criterion not met.

Study these solved cases before continuing.
Cn1cnc2c(-c3ccc(F)cc3)ncnc21	Criterion met
Cn1c(-c2ccccc2)nc2c(Sc3ccc(F)cc3)ncnc21	Criterion met
Cn1cnc2c(Sc3ccccc3)ncnc21	Criterion met
Cn1c(Br)nc2c(Sc3ccccc3)ncnc21	Criterion not met
Cn1c(-c2ccc([S+](C)[O-])cc2)nc2c(Sc3ccc(F)cc3)ncnc21 (stereo not given)	Criterion met

Could you tell me if the measured inhibition of `Fc1ccc(Sc2ncnc3[nH]cnc23)cc1` reaches 3% or more? Criterion not met

Could you tell me if the measured inhibition of `Cn1cnc2c(/C=C/c3ccccc3)ncnc21` reaches 3% or more? Criterion met

Could you tell me if the measured inhibition of `Cn1cnc2c(SCc3ccccc3)ncnc21` reaches 3% or more? Criterion not met

Could you tell me if the measured inhibition of `Nc1[nH]cnc2ncnc1-2` reaches 3% or more? Criterion not met

Could you tell me if the measured inhibition of `CSc1ccc(-c2nc3c(Sc4ccc(F)cc4)ncnc3n2C)cc1` reaches 3% or more? Criterion met

Could you tell me if the measured inhibition of `c1ccc(Sc2[nH]cnc3nccc2-3)cc1` reaches 3% or more? Criterion met

Could you tell me if the measured inhibition of `Nc1ncnc2c1ncn2Cc1ccccc1` reaches 3% or more? Criterion not met

Could you tell me if the measured inhibition of `CSc1ccc(-c2nc3c(Sc4ccccc4)ncnc3n2C)cc1` reaches 3% or more? Criterion not met

Could you tell me if the measured inhibition of `c1ccc(CSc2ncnc3[nH]cnc23)cc1` reaches 3% or more? Criterion not met
